assay: Retention time of the compound by LC-MS method; type: physicochemical
Param threshold (2 min) applies to Retention_time; output Y when value >= threshold, N when value < threshold.

Reference set, count: 5
INSERT INTO results (compound, label_value) VALUES
  ('CCC[C@@H](c1ccc(C(=O)O)c(Oc2cccc(Cl)c2)c1F)N1CCC[C@H](n2cc(C)c(=O)[nH]c2=O)C1', 'N'),
  ('CC[C@H](c1ccc(C(=O)O)c(Oc2cccc(Cl)c2)c1F)N1CCC[C@H](n2cc(C)c(=O)[nH]c2=O)C1', 'N'),
  ('CC[C@H](c1ccc(C(=O)O)c(Oc2cccc(Cl)c2)c1OC)N1CCC[C@H](n2cc(C)c(=O)[nH]c2=O)C1', 'N'),
  ('CC(C)CC(O)c1ccc(Br)c(F)c1F (stereo not given)', 'Y'),
  ('CC[C@@H](c1ccc(C(=O)O)c(Oc2cccc(Cl)c2)c1OC)N1CCC[C@H](n2cc(C)c(=O)[nH]c2=O)C1', 'N');

Then this compound:
IN: Record CCC(O)c1ccc(Br)c(Oc2cccc(Cl)c2)c1OC (stereo not given) ; criterion: Retention_time no lower than 2 min. Met?
OUT: Y

Source listed as ChEMBL document CHEMBL3297666.
